Origin of measurements: ChEMBL document CHEMBL2029346

# Test system: MDA-MB-468
# test_details: Antiproliferative activity against human MDA-MB-468 cells after 11 hrs by MTT assay
# Assay type: functional, cell-based
# measurement_context: MDA-MB-468, 11 h
value_type: IC50 (µM)

>  <structure_notation>
O=S(=O)(Nc1cc(Sc2nnn[nH]2)c(O)c2ccccc12)c1ccc(-c2ccc(C(F)(F)F)cc2)cc1

>  <value_observed>
17

$$$$

###

Measured pIC50, listed per entry for reference.
# test_details: Inhibition of chymotrypsin-like activity of proteasome by fluorogenic assay
# Format: subcellular
pIC50: −log10 of the molar value.

>  <structure_notation>
CCOc1cc(NS(=O)(=O)c2cccs2)c2ccccc2c1O

>  <pIC50>
< 5.30

$$$$
>  <structure_notation>
CNC(=O)CCSc1cc(NS(=O)(=O)c2cccs2)c2ccccc2c1O

>  <pIC50>
< 5.30

$$$$
>  <structure_notation>
CCSc1cc(NS(=O)(=O)c2cccs2)c2ccccc2c1O

>  <pIC50>
< 5.30

$$$$
>  <structure_notation>
CCOC(=O)CSc1cc(NS(=O)(=O)c2cccs2)c2ccccc2c1O

>  <pIC50>
< 5.00

$$$$
>  <structure_notation>
O=C(O)COc1cc(NS(=O)(=O)c2cccs2)c2ccccc2c1O

>  <pIC50>
< 4.00

$$$$

###

# test_details: Inhibition of chymotrypsin-like activity of proteasome by fluorogenic assay
# Assay type: subcellular
pIC50: −log10 of the molar value.

>  <structure_notation>
COc1ccc(-c2ccc(S(=O)(=O)Nc3cc(Sc4nnn[nH]4)c(O)c4ccccc34)cc2)cc1

>  <result_comparator>
=

>  <pIC50>
6.40

$$$$
>  <structure_notation>
O=S(=O)(Nc1cc(Sc2ncn[nH]2)c(O)c2ccccc12)c1ccc(-c2ccc(C(F)(F)F)cc2)cc1

>  <result_comparator>
=

>  <pIC50>
5.61

$$$$
>  <structure_notation>
O=S(=O)(Nc1cc(Br)c(O)c2ccccc12)c1cccs1

>  <result_comparator>
<

>  <pIC50>
4.52

$$$$
>  <structure_notation>
O=S(=O)(Nc1cc(Sc2nnn[nH]2)c(O)c2ccccc12)c1ccc(-c2ccccc2)cc1

>  <result_comparator>
=

>  <pIC50>
6.66

$$$$
>  <structure_notation>
O=S(=O)(Nc1ccc(O)c2ccccc12)c1cccs1

>  <result_comparator>
<

>  <pIC50>
4.52

$$$$
>  <structure_notation>
O=S(=O)(Nc1cc(Sc2ncn[nH]2)c(O)c2ccccc12)c1ccc(-c2ccccc2)s1

>  <result_comparator>
=

>  <pIC50>
6.14

$$$$
>  <structure_notation>
O=S(=O)(Nc1cc(Sc2nnn[nH]2)c(O)c2ccccc12)c1ccccc1

>  <result_comparator>
=

>  <pIC50>
6.22

$$$$
>  <structure_notation>
O=S(=O)(Nc1cc(Sc2ncn[nH]2)c(O)c2ccccc12)c1cccc2ccccc12

>  <result_comparator>
=

>  <pIC50>
6.19

$$$$
>  <structure_notation>
O=S(=O)(Nc1cc(Sc2ncn[nH]2)c(O)c2ccccc12)c1ccc(S(=O)(=O)c2ccccc2)s1

>  <result_comparator>
=

>  <pIC50>
5.71

$$$$
>  <structure_notation>
O=S(=O)(Nc1cc(Sc2nnn[nH]2)c(O)c2ccccc12)c1ccc2ccccc2c1

>  <result_comparator>
=

>  <pIC50>
6.40

$$$$
>  <structure_notation>
O=C(O)CSc1ccc(NS(=O)(=O)c2cccs2)c2ccccc12

>  <result_comparator>
<

>  <pIC50>
4.00

$$$$
>  <structure_notation>
O=S(=O)(Nc1cc(Sc2nnn[nH]2)c(O)c2ccccc12)c1ccc(-c2ccc(F)cc2)cc1

>  <result_comparator>
=

>  <pIC50>
6.64

$$$$
>  <structure_notation>
O=C(O)CCSc1cc(NS(=O)(=O)c2cccs2)c2ccccc2c1O

>  <result_comparator>
=

>  <pIC50>
5.24

$$$$
>  <structure_notation>
O=S(=O)(Nc1cc(Sc2ncn[nH]2)c(O)c2ccccc12)c1ccc(Oc2ccccc2)cc1

>  <result_comparator>
=

>  <pIC50>
6.82

$$$$
>  <structure_notation>
CN(C)C(=O)CCSc1cc(NS(=O)(=O)c2cccs2)c2ccccc2c1O

>  <result_comparator>
<

>  <pIC50>
5.30

$$$$
>  <structure_notation>
O=S(=O)(Nc1cc(Sc2ncn[nH]2)c(O)c2ccccc12)c1ccc(C2CCCCC2)cc1

>  <result_comparator>
=

>  <pIC50>
6.52

$$$$
>  <structure_notation>
O=S(=O)(Nc1cc(Cl)c(O)c2ccccc12)c1cccs1

>  <result_comparator>
<

>  <pIC50>
4.52

$$$$
>  <structure_notation>
O=C(O)CSc1cc(NS(=O)(=O)c2cccs2)c2ccccc2c1O

>  <result_comparator>
=

>  <pIC50>
5.52

$$$$
>  <structure_notation>
O=S(=O)(Nc1cc(Sc2nnn[nH]2)c(O)c2ccccc12)c1ccc(Oc2ccccc2)cc1

>  <result_comparator>
=

>  <pIC50>
6.66

$$$$
>  <structure_notation>
O=C(O)c1ccccc1Sc1cc(NS(=O)(=O)c2cccs2)c2ccccc2c1O

>  <result_comparator>
=

>  <pIC50>
5.39

$$$$

###

Measured pIC50, listed per entry for reference.
# test_details: Inhibition of trypsin-like activity of proteasome by fluorogenic assay
# Type: subcellular
pIC50: −log10 of the molar value.

>  <structure_notation>
O=S(=O)(Nc1cc(Sc2nnn[nH]2)c(O)c2ccccc12)c1ccc(Cl)s1

>  <pIC50>
5.96

$$$$
>  <structure_notation>
O=S(=O)(Nc1cc(Sc2nnn[nH]2)c(O)c2ccccc12)c1ccc(Oc2ccccc2)cc1

>  <pIC50>
5.89

$$$$
>  <structure_notation>
CCCCCc1ccc(S(=O)(=O)Nc2cc(Sc3nnn[nH]3)c(O)c3ccccc23)cc1

>  <pIC50>
5.84

$$$$
>  <structure_notation>
O=S(=O)(Nc1cc(Sc2ncn[nH]2)c(O)c2ccccc12)c1ccc(-c2ccccc2)s1

>  <pIC50>
5.63

$$$$
>  <structure_notation>
O=S(=O)(Nc1cc(Sc2nnn[nH]2)c(O)c2ccccc12)c1ccccc1

>  <pIC50>
5.86

$$$$
>  <structure_notation>
O=S(=O)(Nc1cc(Sc2ncn[nH]2)c(O)c2ccccc12)c1ccc(Oc2ccccc2)cc1

>  <pIC50>
5.38

$$$$
>  <structure_notation>
O=S(=O)(Nc1cc(Sc2nnn[nH]2)c(O)c2ccccc12)c1ccc(-c2ccc(C(F)(F)F)cc2)cc1

>  <pIC50>
5.94

$$$$
>  <structure_notation>
O=S(=O)(Nc1cc(Sc2nnn[nH]2)c(O)c2ccccc12)c1cccs1

>  <pIC50>
6.70

$$$$
>  <structure_notation>
O=S(=O)(Nc1cc(Sc2nnn[nH]2)c(O)c2ccccc12)c1ccc2ccccc2c1

>  <pIC50>
5.87

$$$$
>  <structure_notation>
O=S(=O)(Nc1cc(Sc2nnn[nH]2)c(O)c2ccccc12)c1ccc(Cl)c(Cl)c1

>  <pIC50>
6.24

$$$$
>  <structure_notation>
O=S(=O)(Nc1cc(Sc2nnn[nH]2)c(O)c2ccccc12)c1ccc(Cl)cc1

>  <pIC50>
6.12

$$$$
>  <structure_notation>
O=S(=O)(Nc1cc(Sc2nnn[nH]2)c(O)c2ccccc12)c1ccc(-c2ccccc2)s1

>  <pIC50>
6.26

$$$$
>  <structure_notation>
O=S(=O)(Nc1cc(Sc2ncn[nH]2)c(O)c2ccccc12)c1ccc2ccccc2c1

>  <pIC50>
5.70

$$$$
>  <structure_notation>
O=S(=O)(Nc1cc(Sc2ncn[nH]2)c(O)c2ccccc12)c1ccc(-c2ccc(F)cc2)cc1

>  <pIC50>
5.63

$$$$
